// provenance: patent US20160326228A1

- tgt: T1, Growth and Differentiation Factor-11 (GDF11) (UniProt O95390 299-407)
- T1 construct: also called BMP11
- T1 sequence (looked up): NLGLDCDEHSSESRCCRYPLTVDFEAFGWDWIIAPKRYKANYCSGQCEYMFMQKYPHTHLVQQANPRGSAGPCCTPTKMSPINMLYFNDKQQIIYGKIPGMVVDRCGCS
- assay explanation: BiaCore; receptor-Fc captured by anti-hFc antibody, ligand injected
value kind: koff (s⁻¹)
The figure you give is taken to be in s⁻¹; do not add the unit.

Data request: What value of measured koff is listed for ActRIIB(L79D 20-134)-hFc (Fc fusion, also called GDF Trap) GRGEAETRECIYYNANWELERTNQSGLERCEGEQDKRLHCYASWRNSSGTIELVKKGCWDDDFNCYDRQECVATEENPQVYFCCCEGNFCNERFTHLPEAGGPEVTYEPPPTAPTGGGTHTCPPCPAPELLGGPSVFLFPPKPKDTLMISRTPEVTCVVVDVSHEDPEVKFNWYVDGVEVHNAKTKPREEQYNSTYRVVSVLTVLHQDWLNGKEYKCKVSNKALPVPIEKTISKAKGQPREPQVYTLPPSREEMTKNQVSLTCLVKGFYPSDIAVEWESNGQPENNYKTTPPVLDSDGSFFLYSKLTVDKSRWQQGNVFSCSVMHEALHNHYTQKSLSLSPGK ?
Data returned: 0.000439
